# STUDY_TARGET: hResistin (Homo sapiens (Human), UniProt Q9HD89)
# Sequence (Q9HD89 19-108): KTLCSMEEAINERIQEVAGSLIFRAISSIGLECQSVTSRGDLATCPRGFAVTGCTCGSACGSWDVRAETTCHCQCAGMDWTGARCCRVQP
# MEASUREMENT_PROTOCOL: Evaluation of the ability to inhibit TNF-α secretion by hResistin (THP-1 cells, ELISA)
# Format: cell-based
# TEST_SETTINGS: 5 μM, inhibition of TNF-α secretion by hResistin in THP-1 cells
Counter-ions that a name gives are not always drawn.
ASSAY_METRIC: inhibition at 5 µM (%)

Example molecules with recorded inhibition at 5 µM:
Exercise: Request the reported inhibition at 5 µM associated with NC(=O)CC(N)C(=O)N1CCN(c2nnc(-c3ccc(Cl)cc3)c3ccccc23)CC1 (centres unmarked) [Example 85, hydrochloride]
Solution: 45.3

Exercise: Request the reported inhibition at 5 µM associated with NC(=O)CCC(N)C(=O)N1CCN(c2nnc(-c3ccc(Cl)cc3)c3ccccc23)CC1 (centres unmarked) [Example 84, hydrochloride]
Solution: 12.6

Exercise: Request the reported inhibition at 5 µM associated with `O=S(=O)(C1CC1)N1CCN(c2nnc(-c3ccc(Cl)cc3)c3ccccc23)CC1`
Solution: 52.9

Exercise: Request the reported inhibition at 5 µM associated with `CCOC(=O)CN1CCN(c2nnc(-c3ccc(Cl)cc3)c3ccccc23)CC1`
Solution: 2.4

Exercise: Request the reported inhibition at 5 µM associated with N[C@@H](COCc1ccccc1)C(=O)N1CCN(c2nnc(-c3ccc(Cl)cc3)c3ccccc23)CC1 [Example 79, hydrochloride]
Solution: 65.4

A = NC1(C(=O)N2CCN(c3nnc(-c4ccc(Cl)cc4)c4ccccc34)CC2)CCCC1 [Example 58, hydrochloride]
B = CC(C)[C@H](N)C(=O)N1CCN(c2nnc(-c3ccc(Cl)cc3)c3ccccc23)CC1(C)C [Example 69, hydrochloride]
Exercise: Hey, which is lower on measured inhibition at 5 µM, A or B ? Select an item and report its label.
Solution: B
(B: 16.1%, A: 77.3%)

P = CC(C)[C@H](N)C(=O)N1CCN(c2nnc(-c3ccc(Cl)cc3)c3ccccc23)C[C@@H]1C [Example 73, hydrochloride]
Q = CNC1CCN(c2nnc(-c3ccc(Cl)cc3)c3cc(F)ccc23)C1 (centres unmarked) [Example 91, hydrochloride]
R = O=C([C@@H]1CCCN1)N1CCC(c2nnc(-c3ccc(Cl)cc3)c3ccccc23)CC1 [Example 62, hydrochloride]
S = CNC1CCN(c2nnc(Cc3ccc(Cl)cc3)c3ccccc23)C1 (centres unmarked) [Example 98, hydrochloride]
T = CNCCCN(C)c1nnc(-c2ccc(Cl)cc2)c2ccccc12 [Example 55, hydrochloride]
Exercise: // ascending sort on recorded inhibition at 5 µM Reply format: the labels, ordered as requested.
Solution: S, T, R, P, Q

I = C[C@@H](N)C(=O)N1CCN(c2nnc(-c3ccc(Cl)cc3)c3ccccc23)CC1 [Example 36, hydrochloride]
II = O=C1CN[C@H](C(=O)N2CCN(c3nnc(-c4ccc(Cl)cc4)c4ccccc34)CC2)CN1 [Example 81, hydrochloride]
III = O=C(C1CC1)N1CCC(c2nnc(-c3ccc(Cl)cc3)c3ccccc23)CC1
Exercise: Please rank these molecules by inhibition at 5 µM in descending order. Reply format: the labels, ordered as requested.
Solution: I, II, III

* * *

# STUDY_TARGET: hResistin (Homo sapiens (Human), UniProt Q9HD89)
# MEASUREMENT_PROTOCOL: Evaluation of the ability to inhibit TNF-α secretion by hResistin (THP-1 cells, ELISA)
# Format: cell-based
# TEST_SETTINGS: 5 μM, inhibition of TNF-α secretion by hResistin in THP-1 cells
Counter-ions that a name gives are not always drawn.
ASSAY_METRIC: inhibition at 5 µM (%)

Example compounds with recorded inhibition at 5 µM:
Exercise: Request the reported inhibition at 5 µM associated with CC(C)[C@H](N)C(=O)N1CCN(c2nnc(-c3ccc(Cl)cc3)c3ccccc23)[C@@H](C)C1 [Example 75, hydrochloride]
Solution: 30.9

Exercise: Request the reported inhibition at 5 µM associated with O=C([C@H]1CCCN1)N1CCN(c2nnc(-c3ccc(Cl)cc3)c3ccccc23)CC1 [Example 51, hydrochloride]
Solution: 88.2

A = Clc1ccc(-c2nnc(OC3CCCNC3)c3ccccc23)cc1 (stereo not shown) [Example 96, hydrochloride]
B = CC(C)(N)C(=O)N1CCN(c2nnc(-c3ccc(CCC(=O)O)cc3)c3ccccc23)CC1 [Example 104, hydrochloride]
Exercise: Hey, which is lower on measured inhibition at 5 µM, A or B ? Select an item and report its label.
Solution: B
(B: 0.6%, A: 58.9%)

1 = CC[C@H](C)[C@H](N)C(=O)N1CCC(c2nnc(-c3ccc(Cl)cc3)c3ccccc23)CC1 [Example 63, hydrochloride]
2 = CNCCN(C)c1nnc(-c2ccc(Cl)cc2)c2ccccc12
3 = CN[C@@H]1CCCN(c2nnc(-c3ccc(Cl)cc3)c3ccccc23)C1 [Example 57, hydrochloride]
Exercise: Please rank these compounds by inhibition at 5 µM in descending order. Reply format: the labels, ordered as requested.
Solution: 3, 1, 2
(3: 92.8%, 1: 53.6%, 2: 8.7%)
